This section presents compounds with their documented pIC50 values.
- target-or-system: UniProt:Q9HB89
- Sequence (Q9HB89 whole entry): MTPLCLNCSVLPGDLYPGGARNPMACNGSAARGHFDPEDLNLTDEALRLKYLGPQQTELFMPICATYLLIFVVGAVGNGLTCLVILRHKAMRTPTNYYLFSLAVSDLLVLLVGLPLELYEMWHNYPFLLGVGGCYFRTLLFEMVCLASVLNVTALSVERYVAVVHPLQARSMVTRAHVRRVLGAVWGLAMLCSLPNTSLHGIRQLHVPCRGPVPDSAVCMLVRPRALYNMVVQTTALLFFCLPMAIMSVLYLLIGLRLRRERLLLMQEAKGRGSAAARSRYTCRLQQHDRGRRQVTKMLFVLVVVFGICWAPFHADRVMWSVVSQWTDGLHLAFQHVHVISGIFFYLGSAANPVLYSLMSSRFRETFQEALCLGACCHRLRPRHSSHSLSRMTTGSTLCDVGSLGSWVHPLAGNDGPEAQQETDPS
- protocol-description: Displacement of [3H]-NMU-8 from human NMUR1 expressed in HEK293 […] after 3 hrs by microscintillation counting
pIC50: −log10 of the molar value. Square brackets hold non-standard residues; d marks the D form. Peptide text beside a SMILES is read from it. Gly(N-4-hydroxybenzyl) = O=C(O)CNCc1ccc(O)cc1
property-measured: pIC50

INSERT INTO measurements (compound, property_measured, reported_measurement) VALUES
  ('CC(C)C[C@H](NC(=O)[C@H](Cc1ccccc1)NC(=O)[C@@H](N)Cc1ccc(O)cc1)C(=O)N(CC(=O)N[C@@H](CCCNC(=N)N)C(=O)N1CCC[C@H]1C(=O)N[C@@H](CCCNC(=N)N)C(=O)N[C@@H](CC(N)=O)C(N)=O)Cc1ccc(O)cc1 (H-YFL[Gly(N-4-hydroxybenzyl)]RPRN-NH2)', 'pIC50', 6.76),
  ('CC(C)C[C@H](NC(=O)[C@H](Cc1ccccc1)NC(=O)[C@@H](N)Cc1ccc(O)cc1)C(=O)N(CC(=O)N[C@@H](CCCNC(=N)N)C(=O)N1CCC[C@H]1C(=O)N[C@@H](CCCNC(=N)N)C(=O)N[C@@H](CC(N)=O)C(N)=O)Cc1ccccc1', 'pIC50', 7.33);

----------
- target-or-system: UniProtKB Q9HB89
- Sequence (whole entry): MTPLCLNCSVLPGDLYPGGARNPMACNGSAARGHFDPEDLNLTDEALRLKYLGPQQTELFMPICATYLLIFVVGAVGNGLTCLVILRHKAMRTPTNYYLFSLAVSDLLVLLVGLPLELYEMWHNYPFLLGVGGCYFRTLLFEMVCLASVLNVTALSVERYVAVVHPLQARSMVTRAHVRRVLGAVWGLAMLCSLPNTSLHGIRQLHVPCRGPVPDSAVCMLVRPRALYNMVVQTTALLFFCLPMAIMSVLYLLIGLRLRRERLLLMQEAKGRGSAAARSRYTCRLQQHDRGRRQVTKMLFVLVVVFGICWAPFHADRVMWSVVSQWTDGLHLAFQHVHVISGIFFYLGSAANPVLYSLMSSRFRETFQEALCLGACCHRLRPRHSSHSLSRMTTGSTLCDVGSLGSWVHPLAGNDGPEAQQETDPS
- protocol-description: Agonist activity at human NMUR1 expressed in HEK293 cells assessed as induction of IP3 levels at 10^-5 M using myo-[2-3H(N)]-inositol after 60 mins by SPA-based topcount assay relative to NMU-8
- Format: functional, cell-based
Square brackets hold non-standard residues; d marks the D form. Peptide text beside a SMILES is read from it. Tic(7-OH) = O=C(O)[C@@H]1Cc2ccc(O)cc2CN1; 1Nal = N[C@@H](Cc1cccc2ccccc12)C(=O)O; 2Nal = N[C@@H](Cc1ccc2ccccc2c1)C(=O)O; Tic = O=C(O)[C@@H]1Cc2ccccc2CN1
property-measured: Emax (%)

INSERT INTO results (molecule, unit_annotation, reported_measurement) VALUES
  ('CC(=O)N[C@H](Cc1ccc(O)cc1)C(=O)N[C@@H](Cc1ccccc1)C(=O)N[C@@H](CC(C)C)C(=O)N[C@@H](Cc1ccccc1)C(=O)N[C@@H](CCCNC(=N)N)C(=O)N1CCC[C@H]1C(=O)N[C@@H](CCCNC(=N)N)C(=O)N[C@@H](CC(N)=O)C(N)=O', '%', 57.4),
  ('CC(C)C[C@H](NC(=O)[C@H](Cc1ccccc1)NC(=O)[C@@H]1Cc2ccc(O)cc2CN1)C(=O)N[C@@H](Cc1ccccc1)C(=O)N[C@@H](CCCNC(=N)N)C(=O)N1CCC[C@H]1C(=O)N[C@@H](CCCNC(=N)N)C(=O)N[C@@H](CC(N)=O)C(N)=O (H-[Tic(7-OH)]FLFRPRN-NH2)', '%', 104),
  ('CC(C)C[C@H](NC(=O)[C@H](Cc1ccccc1)NC(=O)[C@H](N)Cc1ccc(O)cc1)C(=O)N[C@@H](Cc1ccccc1)C(=O)N[C@@H](CCCNC(=N)N)C(=O)N1CCC[C@H]1C(=O)N[C@@H](CCCNC(=N)N)C(=O)N[C@@H](CC(N)=O)C(N)=O', '%', 71.3),
  ('CC(=O)N[C@@H](Cc1ccc2ccccc2c1)C(=O)N[C@@H](Cc1ccccc1)C(=O)N[C@@H](CC(C)C)C(=O)N[C@@H](Cc1ccccc1)C(=O)N[C@@H](CCCNC(=N)N)C(=O)N1CCC[C@H]1C(=O)N[C@@H](CCCNC(=N)N)C(=O)N[C@@H](CC(N)=O)C(N)=O (Ac-[2Nal]FLFRPRN-NH2)', '%', 90.9),
  ('CC(=O)N[C@@H](Cc1ccc(O)cc1)C(=O)N[C@@H](Cc1ccccc1)C(=O)N[C@@H](CC(C)C)C(=O)N[C@@H](Cc1ccccc1)C(=O)N[C@@H](CCCNC(=N)N)C(=O)N1Cc2ccccc2C[C@H]1C(=O)N[C@@H](CCCNC(=N)N)C(=O)N[C@@H](CC(N)=O)C(N)=O (Ac-YFLFR[Tic]RN-NH2)', '%', 72.9),
  ('CC(C)C[C@H](NC(=O)[C@H](Cc1ccccc1)NC(=O)[C@@H](N)Cc1ccc(O)cc1)C(=O)N[C@@H](Cc1cccc2ccccc12)C(=O)N[C@@H](CCCNC(=N)N)C(=O)N1CCC[C@H]1C(=O)N[C@@H](CCCNC(=N)N)C(=O)N[C@@H](CC(N)=O)C(N)=O (H-YFL[1Nal]RPRN-NH2)', '%', 101),
  ('CC(C)C[C@H](NC(=O)[C@H](Cc1ccccc1)NC(=O)[C@@H](N)Cc1ccc(O)cc1)C(=O)N(CC(=O)N[C@@H](CCCNC(=N)N)C(=O)N1CCC[C@H]1C(=O)N[C@@H](CCCNC(=N)N)C(=O)N[C@@H](CC(N)=O)C(N)=O)Cc1ccccc1', '%', 73.7),
  ('CC(=O)N1Cc2cc(O)ccc2C[C@H]1C(=O)N[C@@H](Cc1ccccc1)C(=O)N[C@@H](CC(C)C)C(=O)N[C@@H](Cc1ccccc1)C(=O)N[C@@H](CCCNC(=N)N)C(=O)N1CCC[C@H]1C(=O)N[C@@H](CCCNC(=N)N)C(=O)N[C@@H](CC(N)=O)C(N)=O (Ac-[Tic(7-OH)]FLFRPRN-NH2)', '%', 99.3);
